# System: SF-539 CNS
# ASSAY_OVERVIEW: NCI tumour cell line growth inhibition, 48 h
The entries below are paired with their reported TGI.
Give just the number in µM; leave the unit off.

Previously resolved entries follow.
>>> meas_value("COc1ccc(NCc2c(O)ccc3ccccc23)cc1")
25.9
>>> meas_value("COc1ccc2c(c1)Cc1c-2[nH]c2cc3c(cc2c1=O)OCO3")
30.6

Req: Quick one: TGI of COc1cc(C2c3cc4c(cc3[C@@H](Nc3ccc(N5CCOCC5)cc3)C3COC(=O)[C@H]23)OCO4)cc(OC)c1O (stereo partly specified) ?
Resp: 2.32

* * *

# System: SNB-78 CNS
# ASSAY_OVERVIEW: NCI tumour cell line growth inhibition, 48 h
MEASURE_NAME: TGI

>>> meas_value("CN(C)C(=S)/N=c1\\ssc(=S)n1Cc1ccccn1")
"> 100 µM"
>>> meas_value("C[C@@]1(CBr)C[C@@](C)(/C=C/Cl)[C@@H](Cl)C[C@H]1Cl")
"14 µM"
>>> meas_value("CN(C(=O)C1CC1)C1C2CN3CCC(O2)C13 (stereo not drawn)")
"> 100 µM"
>>> meas_value("CC[S+](C)c1ccc(-c2c3nc(c(-c4ccc([S+](C)CC)cc4)c4ccc([nH]4)c(-c4ccc([S+](C)CC)cc4)c4nc(c(-c5ccc([S+](C)CC)cc5)c5ccc2[nH]5)C=C4)C=C3)cc1 (stereo not drawn)")
"> 100 µM"

Req: Quick one: TGI of O/N=C1/C(=C/c2ccc(Cl)cc2)CCCC1C(NO)c1ccc(Cl)cc1 (stereo not drawn) ?
Resp: 48.5 µM

Req: Would you kindly repeat that for "NC(=O)N/N=C1/CCCC/C1=C\c1ccccc1" ?
Resp: > 100 µM

Req: Would you kindly repeat that for "CN(/C(=N\O)c1ccccc1)c1ccccc1" ?
Resp: 88.7 µM

Req: Would you kindly repeat that for CCOC(=O)C1CCn2c(nc3c(=O)n(C)c(=O)n(C)c32)S1 (stereo not drawn) ?
Resp: > 100 µM

Req: Would you kindly repeat that for O/N=C1/C(=C/c2ccccc2)CCCC1C(NO)c1ccccc1 (stereo not drawn) ?
Resp: > 100 µM

Req: Would you kindly repeat that for "COC(=O)NN=C1C(C)(C)C(=NNC(=O)OC)C1(C)C" ?
Resp: > 100 µM

* * *

The entries below are paired with their reported TGI.
# Test system: SN12C renal
# ASSAY_OVERVIEW: NCI tumour cell line growth inhibition, 48 h
Give just the number in µM; leave the unit off.

Previously resolved entries follow.
>>> meas_value("COC(=O)C[C@](O)(CCC(C)(C)O)C(=O)O[C@@H]1C(OC)=C[C@]23CCCN2CCc2cc4c(cc2[C@H]13)OCO4")
1.07
>>> meas_value("O=C(Nc1ccccc1)OCc1nc2c([nH]1)C(=O)C=CC2=O")
36.3
>>> meas_value("COc1cccc2cc(N(C)c3nc(C)nc4ccsc34)ccc12")
15
>>> meas_value("COc1ccc(Cn2cc3c(c2-c2ccccc2)CCc2cncnc2-3)cc1")
20.9
>>> meas_value("Cn1c2cc(Cl)ccc2c2ccc3c(c21)C(=O)C=CC3=O")
21.2
>>> meas_value("O=C(Nc1ccc([N+](=O)[O-])cc1)c1cc2ccccc2cc1O")
5.92
>>> meas_value("Cc1sc2c(c1C)C(c1ccc(Cl)cc1)=N[C@@H](CC(=O)Nc1ccc(O)cc1)c1nnc(C)n1-2")
30.7
>>> meas_value("C#CCOc1cccc(Nc2ncnc3c2ncn3C2CCN(C(=O)CCl)C2)c1 (stereo unspecified)")
35.5

Req: Quick one: TGI of COc1cc(C2c3cc4c(cc3[C@@H](Nc3ccc(N5CCOCC5)cc3)C3COC(=O)[C@H]23)OCO4)cc(OC)c1O (stereo partly specified) ?
Resp: 2.12
